- protocol_details: Hydrolysis in pH 7.4 phosphate buffer
- Format: physicochemical
- measurement_parameters: phosphate buffer, pH 7.4
reported_metric: half-life at 200 µM (h)
Value expressed in h; do not type the unit.

Req: Would you mind telling me what half-life at 200 µM value was observed for CC(C)[C@H](N)C(=O)OCCOCn1cnc2c(=O)nc(N)[nH]c21 [valacyclovir] ?
Resp: 13.8

====

Here, each record is paired with measured pIC50 data.
- system_tested: hPEPT1 (Homo sapiens, UniProt P46059)
- Sequence (P46059 whole entry): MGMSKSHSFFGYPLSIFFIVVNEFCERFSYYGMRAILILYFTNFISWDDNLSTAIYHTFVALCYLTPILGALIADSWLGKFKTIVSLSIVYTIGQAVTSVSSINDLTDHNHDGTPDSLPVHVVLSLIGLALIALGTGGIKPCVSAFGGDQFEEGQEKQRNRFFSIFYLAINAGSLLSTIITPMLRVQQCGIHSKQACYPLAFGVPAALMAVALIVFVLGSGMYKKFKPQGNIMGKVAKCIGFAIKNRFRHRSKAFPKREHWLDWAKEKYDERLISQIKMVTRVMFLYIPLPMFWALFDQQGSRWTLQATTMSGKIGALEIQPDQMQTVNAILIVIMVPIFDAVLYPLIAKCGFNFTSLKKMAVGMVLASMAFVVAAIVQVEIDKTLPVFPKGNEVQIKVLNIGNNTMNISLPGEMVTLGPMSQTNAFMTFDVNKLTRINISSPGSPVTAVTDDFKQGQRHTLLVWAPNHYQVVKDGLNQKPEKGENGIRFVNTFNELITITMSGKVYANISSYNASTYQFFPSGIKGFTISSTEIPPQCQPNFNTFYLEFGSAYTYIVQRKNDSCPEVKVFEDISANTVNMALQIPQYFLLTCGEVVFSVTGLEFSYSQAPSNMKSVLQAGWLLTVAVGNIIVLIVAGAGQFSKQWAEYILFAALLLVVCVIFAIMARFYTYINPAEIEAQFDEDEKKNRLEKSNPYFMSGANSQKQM
- protocol_details: [3H]Gly-Sar uptake inhibition in HeLa/hPEPT1 cells
Counter-ions that a name gives are not always drawn.
In plain terms, pIC50 is the concentration in mol/L turned into minus its base-10 logarithm.

compound | pIC50
CC(C)[C@H](N)C(=O)OCc1ccccc1 [Val-OBz, L-valine benzyl ester hydrochloride] | 3.41

Read the next record carefully.
Req: Would you mind telling me what pIC50 value was observed for "CC[C@H](C)[C@H](N)C(=O)OCc1ccccc1" ?
Resp: 2.98
